Test system: HT29 cells
Assay: Antiproliferative activity against HT29 cells (Cell Titer-Lumi, ATP content)
Format: cell-based
Conditions: Homo sapiens, HT-29, 72 after compound addition, read-out: HT-29 cells Anti-proliferative activity (IC50 for the inhibition against HT-29 cell growth)
I'd appreciate it if you could supply IC50 values for the items below.

Item: C=CCn1c(=O)c2cnc(Nc3cnn(C4CCN(C(C)C)CC4)c3)nc2n1-c1ccc(=O)n(C(C)C)n1 [Compound 251] | IC50: 1 to 3 µM

Item: CCn1c(=O)c2cnc(Nc3ccc(N4CCN(C)CC4)c(C)c3)nc2n1-c1ccc(=O)n(C(C)(C)C)n1 [Compound 285] | IC50: ≤ 1 µM

Item: Cc1cc(Nc2ncc3c(=O)n(C4CC4)n(-c4ccc(=O)n(C(C)C)n4)c3n2)ccc1C1CCN(C)CC1 [Compound 273] | IC50: ≤ 1 µM

Item: C=CCn1c(=O)c2cnc(Nc3ccc(N4CC5(CCNCC5)C4)c(C)c3)nc2n1-c1ccc(=O)n(C(C)C)n1 [Compound 167] | IC50: 1 to 3 µM

Item: C=CCn1c(=O)c2cnc(Nc3ccc(N4CCN(C)CC4)c(F)c3)nc2n1-c1ccc(=O)n(C(C)C)n1 [Compound 44] | IC50: ≤ 1 µM

Item: C=CCn1c(=O)c2cnc(Nc3ccc(N(C)CCN(C)C)nc3)nc2n1-c1ccc(=O)n(C(C)C)n1 [Compound 246] | IC50: ≤ 1 µM

Item: C=CCn1c(=O)c2cnc(Nc3ccc(N4CC5CCC(C4)N5C)cc3)nc2n1-c1ccc(=O)n(C(C)C)n1 [Compound 136] | IC50: 1 to 3 µM

Item: C=CCn1c(=O)c2cnc(Nc3ccc(C4CCN(C)CC4)c(CC(F)(F)F)c3)nc2n1-c1ccc(=O)n(C(C)C)n1 [Compound 199] | IC50: ≤ 1 µM

Item: C=CCn1c(=O)c2cnc(Nc3ccc(N4CC5(CCN5C)C4)c(C)c3)nc2n1-c1ccc(=O)n(C(C)C)n1 [Compound 187] | IC50: ≤ 1 µM

Item: C=CCn1c(=O)c2cnc(Nc3cc(Cl)c(N4CCN(C)CC4)c(OC)c3)nc2n1-c1ccc(=O)n(C(C)C)n1 [Compound 66] | IC50: ≤ 1 µM

Item: C=CCn1c(=O)c2cnc(Nc3ccc(N4CCC(NC)CC4)c(C)c3)nc2n1-c1ccc(=O)n(C(C)C)n1 [Compound 105] | IC50: ≤ 1 µM

Item: C=CCn1c(=O)c2cnc(Nc3ccc(N4CCN(C)CC4)cc3)nc2n1-c1ccc(=O)n(C(C)(C)C)c1 [Compound 21] | IC50: ≤ 1 µM

Item: C=CCn1c(=O)c2cnc(Nc3ccc(N4CCC(N5CCOCC5)CC4)c(OC)c3)nc2n1-c1ccc(=O)n(C(C)C)n1 [Compound 150] | IC50: ≤ 1 µM

Item: C=CCn1c(=O)c2cnc(Nc3ccc(N4CC5(CCNC5)C4)c(C)c3)nc2n1-c1ccc(=O)n(C(C)C)n1 [Compound 161] | IC50: 1 to 3 µM

###

pIC50: −log10 of the molar value.
Hi! I'm sharing some pIC50 results obtained with Wee-1 kinase (Homo sapiens).
Sequence (P30291 whole entry): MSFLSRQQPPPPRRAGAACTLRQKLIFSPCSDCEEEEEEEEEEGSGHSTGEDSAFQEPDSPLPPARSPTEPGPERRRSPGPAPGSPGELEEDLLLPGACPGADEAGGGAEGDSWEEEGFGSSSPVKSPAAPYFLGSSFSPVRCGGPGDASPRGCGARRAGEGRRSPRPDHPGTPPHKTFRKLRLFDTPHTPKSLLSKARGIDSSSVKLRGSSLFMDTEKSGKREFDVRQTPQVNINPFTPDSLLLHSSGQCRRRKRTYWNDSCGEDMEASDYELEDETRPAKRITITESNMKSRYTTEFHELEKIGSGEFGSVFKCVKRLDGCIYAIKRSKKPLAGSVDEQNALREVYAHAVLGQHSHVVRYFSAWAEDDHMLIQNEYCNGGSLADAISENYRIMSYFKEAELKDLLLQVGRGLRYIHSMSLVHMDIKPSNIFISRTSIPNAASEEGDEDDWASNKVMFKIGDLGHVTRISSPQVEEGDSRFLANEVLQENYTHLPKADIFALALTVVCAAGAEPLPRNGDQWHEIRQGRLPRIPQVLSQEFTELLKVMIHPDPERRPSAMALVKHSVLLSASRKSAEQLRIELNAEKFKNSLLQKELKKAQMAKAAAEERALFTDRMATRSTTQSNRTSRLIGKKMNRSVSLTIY

Item: C=CCn1c(=O)c2cnc(Nc3ccc4c(c3)CNCC4)nc2n1-c1ccc(=O)n(C(C)C)n1 [Compound 225] | System: Wee-1 kinase (Homo sapiens) | pIC50: ≥ 7.52

Item: C=CCn1c(=O)c2cnc(Nc3ccc(N4CC(N5CCC5)C4)cc3)nc2n1-c1ccc(=O)n(C(C)C)n1 [Compound 80] | System: Wee-1 kinase (Homo sapiens) | pIC50: ≥ 7.52

Item: C=CCn1c(=O)c2cnc(Nc3ccc(OCCN(C)C)cc3)nc2n1-c1ccc(=O)n(C(C)C)n1 [Compound 216] | System: Wee-1 kinase (Homo sapiens) | pIC50: ≥ 7.52

Item: C=CCn1c(=O)c2cnc(Nc3ccc(N4CCC5(CC4)CNC5)c(C)c3)nc2n1-c1ccc(=O)n(C(C)C)n1 [Compound 176] | System: Wee-1 kinase (Homo sapiens) | pIC50: ≥ 7.52

###

Experiment: Pharmacokinetic evaluation in mice
Type: in vivo, male ICR mice
Conditions: male, ICR, mouse, plasma, iv, 2 mg/kg
Protocol: Example 344. Pharmacokinetic Evaluation in Mice The compounds were administered by intravenous injection at a dose of 2 mg/kg and oral gavage at a dose of 10 mg/kg (0.5% CMC-Na suspension). […] The compound concentration in the plasma was determined by liquid chromatography-tandem mass spectrometry, and the corresponding pharmacokinetic parameters were obtained according to a plasma concentration-time curve.
I'd appreciate it if you could supply clearance values for the items below.
Your reply should be a number followed by the unit it is expressed in.

Item: C=CCn1c(=O)c2cnc(Nc3ccc(N4CCN(C)CC4)cc3)nc2n1-c1ccc(=O)n(C(C)C)n1 | clearance: 45.3 mL/min/kg

Item: C=CCn1c(=O)c2cnc(Nc3ccc(N4CCN(C)CC4)cc3)nc2n1-c1cccc(C(C)(C)O)n1 [AZD-1775, reference compound] | clearance: 220 mL/min/kg

###

Assay: Pharmacokinetic evaluation in mice
Type: in vivo, male ICR mice
Conditions: male, ICR, mouse, plasma, iv, 2 mg/kg, read-out: Vss
I'd appreciate it if you could supply Vd values for the items below.
Quick note: give the figure in L/kg, leave out the unit.

Item: C=CCn1c(=O)c2cnc(Nc3ccc(N4CCN(C)CC4)cc3)nc2n1-c1cccc(C(C)(C)O)n1 [AZD-1775, reference compound] | Vd: 3.51

Item: C=CCn1c(=O)c2cnc(Nc3ccc(N4CCN(C)CC4)cc3)nc2n1-c1ccc(=O)n(C(C)C)n1 [Compound 3] | Vd: 1.8

###

Tested on: HT29 cells
Test: Antiproliferative activity against HT29 cells (Cell Titer-Lumi, ATP content)
Format: cell-based
Settings: Homo sapiens, HT-29, 72 after compound addition, read-out: HT-29 cells Anti-proliferative activity (IC50 for the inhibition against HT-29 cell growth)
I'd appreciate it if you could supply IC50 values for the items below.

Item: C=CCn1c(=O)c2cnc(Nc3ccc(N4CCNCC4)c(C(F)(F)F)c3)nc2n1-c1ccc(=O)n(C(C)C)c1 [Compound 49] | IC50: ≤ 1000 nM

Item: C=CCn1c(=O)c2cnc(Nc3ccc4c(c3)CCN(C)C4)nc2n1-c1ccc(=O)n(C(C)C)n1 [Compound 229] | IC50: ≤ 1000 nM

Item: C=CCn1c(=O)c2cnc(Nc3ccc4c(C5CCN(C(C)C)CC5)cn(C)c4c3)nc2n1-c1ccc(=O)n(C(C)C)n1 [Compound 268] | IC50: ≤ 1000 nM

Item: C=CCn1c(=O)c2cnc(Nc3ccc(N4CCC5(CCNCC5)CC4)c(OC)c3)nc2n1-c1ccc(=O)n(C(C)C)n1 [Compound 183] | IC50: ≤ 1000 nM

Item: C=CCn1c(=O)c2cnc(Nc3ccc(N4CCC(C)(NC)CC4)c(OC)c3)nc2n1-c1ccc(=O)n(C(C)C)n1 [Compound 112] | IC50: ≤ 1000 nM

Item: C=CCn1c(=O)c2cnc(Nc3ccc(N4CCC5(CC4)CNC5)c(C)c3)nc2n1-c1ccc(=O)n(C(C)C)n1 [Compound 176] | IC50: ≤ 1000 nM

Item: C=CCn1c(=O)c2cnc(Nc3ccc(N4C[C@@H](C)N(C)[C@@H](C)C4)cc3)nc2n1-c1ccc(=O)n(C(C)C)n1 [Compound 117] | IC50: ≤ 1000 nM

###

I'd appreciate it if you could supply IC50 values for the items below.

Item: C=CCn1c(=O)c2cnc(Nc3ccc(N4CCN(C)CC4)cc3)nc2n1-c1ccc(=O)n(C(C)(C)C)n1 | System: Wee-1 kinase (Homo sapiens) | IC50: ≤ 30 nM

Item: CCn1c(=O)c2cnc(Nc3ccc(N4CCN(C)CC4)cc3)nc2n1-c1ccc(=O)n(C(C)(C)C)c1 | System: Wee-1 kinase (Homo sapiens) | IC50: ≤ 30 nM

Item: C=CCn1c(=O)c2cnc(Nc3cc(OC)cc(C4CCNCC4)c3)nc2n1-c1ccc(=O)n(C(C)C)n1 | System: Wee-1 kinase (Homo sapiens) | IC50: ≤ 30 nM

Item: Cc1cc(Nc2ncc3c(=O)n(C(C)C)n(-c4ccc(=O)n(C(C)C)n4)c3n2)ccc1N1CCN(C)CC1 | System: Wee-1 kinase (Homo sapiens) | IC50: ≤ 30 nM

Item: C=CCn1c(=O)c2cnc(Nc3ccc(N4CCC(N5CCC(F)(F)CC5)CC4)cc3)nc2n1-c1ccc(=O)n(C(C)C)n1 | System: Wee-1 kinase (Homo sapiens) | IC50: ≤ 30 nM

Item: C=CCn1c(=O)c2cnc(Nc3cc(F)c(N4CCN(C)CC4)c(Cl)c3)nc2n1-c1ccc(=O)n(C(C)C)n1 | System: Wee-1 kinase (Homo sapiens) | IC50: ≤ 30 nM

Item: C=CCn1c(=O)c2cnc(Nc3ccc(C4(C)CCCNC4)cc3)nc2n1-c1ccc(=O)n(C(C)C)n1 (stereo not shown) | System: Wee-1 kinase (Homo sapiens) | IC50: ≤ 30 nM

Item: C=CCn1c(=O)c2cnc(Nc3ccc(N4CCC(N5CCN(C)CC5)CC4)cc3)nc2n1-c1ccc(=O)n(C(C)C)n1 | System: Wee-1 kinase (Homo sapiens) | IC50: ≤ 30 nM

Item: C=CCn1c(=O)c2cnc(Nc3ccc(C4CCNCC4)c(OC)c3)nc2n1-c1ccc(=O)n(C(C)C)n1 | System: Wee-1 kinase (Homo sapiens) | IC50: ≤ 30 nM

Item: C=CCn1c(=O)c2cnc(Nc3ccc(C4CCNCC4)c(C)c3)nc2n1-c1ccc(=O)n(C(C)C)n1 | System: Wee-1 kinase (Homo sapiens) | IC50: ≤ 30 nM

Item: C=CCn1c(=O)c2cnc(Nc3ccc(N4CC5CCC(C4)N5)cc3)nc2n1-c1ccc(=O)n(C(C)C)n1 | System: Wee-1 kinase (Homo sapiens) | IC50: 30 to 100 nM

Item: C=CCn1c(=O)c2cnc(Nc3ccc(C4(C)CCNCC4)cc3)nc2n1-c1ccc(=O)n(C(C)C)n1 | System: Wee-1 kinase (Homo sapiens) | IC50: ≤ 30 nM

Item: C=CCn1c(=O)c2cnc(Nc3ccc(N4CCC5(CC4)CN(C)C5)cc3)nc2n1-c1ccc(=O)n(C(C)C)n1 | System: Wee-1 kinase (Homo sapiens) | IC50: ≤ 30 nM

Item: C=CCn1c(=O)c2cnc(Nc3ccc(N4CCNCC4)c(CO)c3)nc2n1-c1ccc(=O)n(C(C)C)c1 | System: Wee-1 kinase (Homo sapiens) | IC50: 30 to 100 nM

Item: C=CCn1c(=O)c2cnc(Nc3ccc4c(N5CCN(C)CC5)cn(C)c4c3)nc2n1-c1ccc(=O)n(C(C)C)n1 | System: Wee-1 kinase (Homo sapiens) | IC50: ≤ 30 nM

Item: C=CCn1c(=O)c2cnc(Nc3ccc(N4CCN(C)CC4)cc3)nc2n1-c1ccc(=O)n(C(C)(C)C(F)(F)F)n1 | System: Wee-1 kinase (Homo sapiens) | IC50: ≤ 30 nM

Item: C=CCn1c(=O)c2cnc(Nc3ccc(N4CC(N(C)C)C4)c(C)c3)nc2n1-c1ccc(=O)n(C(C)C)n1 | System: Wee-1 kinase (Homo sapiens) | IC50: ≤ 30 nM

Item: C=CCn1c(=O)c2cnc(Nc3ccc(N4CCN(C)[C@H](C)C4)c(C)c3)nc2n1-c1ccc(=O)n(C(C)C)n1 | System: Wee-1 kinase (Homo sapiens) | IC50: ≤ 30 nM

Item: C=CCn1c(=O)c2cnc(Nc3cc(Cl)cc(C4CCNCC4)c3)nc2n1-c1ccc(=O)n(C(C)C)n1 | System: Wee-1 kinase (Homo sapiens) | IC50: ≤ 30 nM

Item: CCn1c(=O)c2cnc(Nc3ccc4c(c3)CN(C)CC43CC3)nc2n1-c1ccc(=O)n(C(C)C)n1 | System: Wee-1 kinase (Homo sapiens) | IC50: ≤ 30 nM

Item: C=CCn1c(=O)c2cnc(Nc3ccc4c(c3)C3(CC3)CNC4)nc2n1-c1ccc(=O)n(C(C)C)n1 | System: Wee-1 kinase (Homo sapiens) | IC50: ≤ 30 nM

Item: C=CCn1c(=O)c2cnc(Nc3ccc(N4CCN(C)CC4)nc3)nc2n1-c1ccc(=O)n(C(C)C)n1 | System: Wee-1 kinase (Homo sapiens) | IC50: ≤ 30 nM

Item: C=CCn1c(=O)c2cnc(Nc3ccc(N4CC(N5CCCC5)C4)cc3)nc2n1-c1ccc(=O)n(C(C)C)n1 | System: Wee-1 kinase (Homo sapiens) | IC50: ≤ 30 nM

Item: C=CCn1c(=O)c2cnc(Nc3cc(C)c(N4CCN(C)CC4)c(Cl)c3)nc2n1-c1ccc(=O)n(C(C)C)n1 | System: Wee-1 kinase (Homo sapiens) | IC50: ≤ 30 nM

Item: C=CCn1c(=O)c2cnc(Nc3ccc4cc(N5CCN(C)CC5)ccc4c3)nc2n1-c1ccc(=O)n(C(C)C)n1 | System: Wee-1 kinase (Homo sapiens) | IC50: ≤ 30 nM

Item: CC(C)n1cc(-n2c3nc(Nc4ccc(N5CCN(C)CC5)cc4)ncc3c(=O)n2C(C)C)cc(F)c1=O | System: Wee-1 kinase (Homo sapiens) | IC50: ≤ 30 nM

Item: C=CCn1c(=O)c2cnc(Nc3ccc(N4CCN(C)CC4)cc3)nc2n1-c1cc(C(F)F)c(=O)n(C(C)C)c1 | System: Wee-1 kinase (Homo sapiens) | IC50: ≤ 30 nM

Item: Cc1cc(Nc2ncc3c(=O)n(C(C)C)n(-c4ccc(=O)n(C(C)C)n4)c3n2)ccc1C1CCN(C)CC1 | System: Wee-1 kinase (Homo sapiens) | IC50: ≤ 30 nM
